Cited source: patent US9029337B2

test system: human Factor 7 mRNA; assay: Antisense inhibition of human Factor 7 with short (14-mer) oligonucleotides in HepB3 cells, electroporation 1,000 nM; type: cell-based; conditions: electroporation, 1,000 nM antisense oligonucleotide, approximately 24 hours, Factor 7 mRNA relative to untreated control cells
Strand notation (5' to 3'): a small letter for the sugar, then the base; units joined by * are phosphorothioate-linked, units joined directly phosphodiester-linked; [ ] holds rarer units or linkages, { } end groups; capitals alone tell only the bases. e = 2'-O-(2-methoxyethyl) (MOE); [5mC] = 5-methylcytosine; d = 2'-deoxy (DNA)
I'd be grateful if you could share measured % Inhibition for these entries.
Answers are plain numbers, in %.

Substance: 435494 (antisense eA*eG*dA*d[5mC]*d[5mC]*d[5mC]*dT*dG*dG*dT*dG*dT*eA*e[5mC]) [compound 435494]
Experimental System: human Factor 7 mRNA
Unit Descriptor: %
% Inhibition: 47
//
Substance: 435670 (antisense e[5mC]*eA*dA*d[5mC]*dA*dG*dG*dA*d[5mC]*d[5mC]*dT*dG*e[5mC]*e[5mC]) [compound 435670]
Experimental System: human Factor 7 mRNA
Unit Descriptor: %
% Inhibition: 47
//
Substance: 435492 (antisense eA*e[5mC]*d[5mC]*d[5mC]*dT*dG*dG*dT*dG*dT*dA*d[5mC]*eA*e[5mC]) [compound 435492]
Experimental System: human Factor 7 mRNA
Unit Descriptor: %
% Inhibition: 45
//
Substance: 435846 (antisense eT*eG*dG*dA*dG*dA*dG*dA*d[5mC]*d[5mC]*dA*dA*eT*eG) [compound 435846]
Experimental System: human Factor 7 mRNA
Unit Descriptor: %
% Inhibition: 7
//
Substance: 435833 (antisense eA*eG*dA*d[5mC]*dA*d[5mC]*dT*dT*dG*dA*dG*dA*eG*e[5mC]) [compound 435833]
Experimental System: human Factor 7 mRNA
Unit Descriptor: %
% Inhibition: 24

Take each entry in turn and give its % Inhibition.
1. 435743 (antisense eG*e[5mC]*d[5mC]*dT*d[5mC]*dA*dA*dA*d[5mC]*dA*dT*d[5mC]*eT*eA) [compound 435743]
2. 435720 (antisense eA*eG*dG*d[5mC]*dT*d[5mC]*dA*dG*d[5mC]*dT*dG*dG*eG*e[5mC]) [compound 435720]
3. 435640 (antisense eT*eG*dT*dA*dA*dG*dA*dA*dA*dT*d[5mC]*d[5mC]*eA*eG) [compound 435640]

1: 40; 2: 16; 3: 2
